Target: Protein deacetylase HDAC6 (Homo sapiens, UniProt Q9UBN7)
Sequence (Q9UBN7 whole entry): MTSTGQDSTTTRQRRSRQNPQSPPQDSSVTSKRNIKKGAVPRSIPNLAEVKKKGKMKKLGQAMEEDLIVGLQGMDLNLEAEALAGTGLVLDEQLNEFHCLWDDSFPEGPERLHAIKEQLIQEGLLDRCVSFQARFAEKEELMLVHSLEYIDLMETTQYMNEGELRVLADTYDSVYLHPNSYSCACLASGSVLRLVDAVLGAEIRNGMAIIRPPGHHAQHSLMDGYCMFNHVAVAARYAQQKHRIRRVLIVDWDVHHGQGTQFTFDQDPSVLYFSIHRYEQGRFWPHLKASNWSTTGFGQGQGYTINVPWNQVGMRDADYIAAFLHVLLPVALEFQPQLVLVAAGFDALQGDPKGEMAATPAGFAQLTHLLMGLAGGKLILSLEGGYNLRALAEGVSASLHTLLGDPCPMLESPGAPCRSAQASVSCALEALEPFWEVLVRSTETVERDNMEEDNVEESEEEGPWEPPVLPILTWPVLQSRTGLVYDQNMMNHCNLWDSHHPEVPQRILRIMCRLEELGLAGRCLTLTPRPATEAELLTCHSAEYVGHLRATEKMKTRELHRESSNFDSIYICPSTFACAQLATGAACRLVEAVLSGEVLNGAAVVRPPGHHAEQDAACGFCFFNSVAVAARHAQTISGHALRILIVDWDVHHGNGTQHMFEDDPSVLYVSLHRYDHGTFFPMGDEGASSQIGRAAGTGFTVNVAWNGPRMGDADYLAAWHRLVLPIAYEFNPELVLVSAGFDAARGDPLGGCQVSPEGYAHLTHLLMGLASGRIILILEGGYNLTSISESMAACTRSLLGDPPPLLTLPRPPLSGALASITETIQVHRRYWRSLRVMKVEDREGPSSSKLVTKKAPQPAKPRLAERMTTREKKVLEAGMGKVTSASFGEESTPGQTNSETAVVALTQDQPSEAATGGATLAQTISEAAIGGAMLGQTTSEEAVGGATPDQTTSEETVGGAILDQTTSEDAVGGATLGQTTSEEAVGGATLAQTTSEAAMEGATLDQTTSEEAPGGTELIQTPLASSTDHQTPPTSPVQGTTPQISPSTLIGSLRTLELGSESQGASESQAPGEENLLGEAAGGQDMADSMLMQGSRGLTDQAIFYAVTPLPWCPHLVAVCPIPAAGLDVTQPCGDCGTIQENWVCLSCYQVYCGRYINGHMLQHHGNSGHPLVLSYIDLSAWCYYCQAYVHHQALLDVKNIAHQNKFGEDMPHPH
result-type: pIC50
Answers are plain numbers, as −log10 of the molar value.

Known pIC50 results, listed for orientation:
Request: Request the reported pIC50 associated with O=C(CCCCCCC(=O)Nc1cccc(-c2cn(-c3ccc(C(F)(F)F)cc3)nn2)c1)NO
Result: 8.54

Request: Request the reported pIC50 associated with O=C(CCCCCCC(=O)Nc1cccc(-n2cc(C3CCCCC3)nn2)c1)NO
Result: 8.37

Request: Request the reported pIC50 associated with O=C(CCCCCCC(=O)Nc1cccc(-c2cn(-c3ccc(I)cc3)nn2)c1)NO
Result: 8.66

Request: Request the reported pIC50 associated with O=C(CCCCCCC(=O)Nc1cccc(-c2cn(C3CCCCC3)nn2)c1)NO
Result: 8.48

Next:
Request: Request the reported pIC50 associated with O=C(CCCCCCC(=O)Nc1cccc(-c2cn(-c3ccc(F)cc3)nn2)c1)NO
Result: 8.08

The measurements presented in this section are drawn from ChEMBL document CHEMBL1154884.
